Data provenance: ChEMBL document CHEMBL3431459

Measurement Protocol: SUPPLEMENTARY: Lyophilisation Solubility Assay (LYSA)
Assay type: physicochemical
Experimental Conditions: read-out: Kinetic_solubility
Recorded Metric: solubility kinetic (µg/mL)

Use the examples below as a reference point.
1. O=C(O)c1cncc(-c2noc([C@H]3CCCCN3C(=O)COc3ccccc3)n2)c1 :: 397
2. COc1ccc(Cl)cc1CN1C(=O)OC(C)(C)c2ccc(C(=O)Nc3ccc(CC(=O)O)c(Cl)c3)cc21 :: 25
3. COc1ccc(Cl)cc1S(=O)(=O)Nc1cc(C(=O)Nc2ccccc2)ccc1CCC(=O)O :: 440
4. Nc1cccc(-c2nc([C@H]3CCCCN3C(=O)COc3ccccc3)no2)n1 :: 25

[A] COc1ccc(Cl)cc1Cc1cn(C)c2ccc(C(=O)Nc3nc(CC(=O)O)cs3)cc12
[B] COc1ccc(Cl)cc1S(=O)(=O)N(c1cc(C(=O)Nc2ncc(CC(=O)O)s2)cc2c1OCO2)C(C)C
[C] COc1ccc(Cl)cc1S(=O)(=O)N1COc2c(F)cc(C(=O)Nc3ccc(C(=O)O)c(Cl)c3)cc21
[D] COc1ccc(Cl)cc1S(=O)(=O)N1CCCc2ccc(C(=O)Nc3ccc(C(=O)O)c(F)c3)cc21
Sort these compounds on solubility kinetic so the largest reading comes first. Response format: the labels, sorted as the prompt asks.
D, B, C, A
(D: 182 µg/mL, B: 109 µg/mL, C: 73 µg/mL, A: 19 µg/mL)

----------
Measurement Protocol: SUPPLEMENTARY: Lipophilicity (log D) Determination by high-throughput shake-flask
Type: physicochemical
Experimental Conditions: octanol/water
Recorded Metric: logD

Please review the following examples before continuing.
1. NS(=O)(=O)c1ccc(-c2noc(C3C4CC4CN3C(=O)COc3ccccc3)n2)cc1 (centres undefined) :: 2.04
2. O=C([C@H]1CCCCN1C(=O)COc1ccccc1)N1Cc2cc(Cl)c(N3CCOCC3)cc2C1 :: 3.24
3. O=C(COc1ccccc1)N1CCCC[C@@H]1c1noc(-c2ccc(-n3cncn3)cc2)n1 :: 3.08
4. CS(=O)(=O)NCc1cccc(-c2nc([C@H]3CCCCN3C(=O)COc3ccccc3)no2)c1 :: 2.44
5. COc1ccc(Cl)cc1S(=O)(=O)N1COc2c(F)cc(C(=O)Nc3ccc(C(=O)O)c(F)c3)cc21 :: 0.63

[A] CCC(=O)Nc1cccc(-c2n[nH]c([C@H]3CCCCN3C(=O)COc3ccccc3)n2)c1
[B] Cc1cc(C)cc(S(=O)(=O)c2n[nH]c3ccc(C(=O)Nc4ccc(C(=O)O)cc4)cc23)c1
Field: lower logD | Options: A / B Please reply using the label of the selected record.
B

----------
Measurement Protocol: SUPPLEMENTARY: PAMPA permeability assay
Format: physicochemical
Experimental Conditions: read-out: Permeability
Recorded Metric: Papp (×10⁻⁶ cm/s)

Illustrative cases are given below, each with its answer.
1. COc1ccc(Cl)cc1Cc1c[nH]c2ccc(C(=O)Nc3nc(CC(=O)O)cs3)cc12 :: 0.49
2. Cc1cc(C)cc(S(=O)(=O)n2ccc3ccc(C(=O)Nc4ccc(CC(=O)O)cc4)cc32)c1 :: 1.89
3. O=C(c1nc([C@H]2CCCCN2C(=O)COc2ccccc2)no1)N1CCC(c2ccncc2)C1 (some centres not stated) :: 4.27
4. N#Cc1cccc(-c2nc([C@H]3CCCCN3C(=O)COc3ccccc3)no2)c1 :: 3.83
5. COc1ccc(Cl)cc1CN1C(=O)OC(C)(C)c2ccc(C(=O)Nc3ccc(C(=O)O)cc3)cc21 :: 1.81
6. CCn1cc(S(=O)(=O)c2cc(Cl)ccc2OC)c2cc(C(=O)Nc3ccc(C(=O)O)cc3)ccc21 :: 0.67
7. O=C1NCc2ccc(-c3n[nH]c([C@H]4CCCCN4C(=O)COc4ccccc4)n3)cc2N1 :: 2.18
8. O=C([C@H]1CCCCN1C(=O)COc1ccccc1)N1Cc2ccc(Cl)cc2C1 :: 5.03
9. NC(=O)c1ccc(-c2csc([C@H]3CCCCN3C(=O)COc3ccccc3)n2)cc1 :: 5.48
10. COc1ccc(Cl)cc1S(=O)(=O)N1CCOc2c(C)cc(C(=O)Nc3ccc(C(=O)O)cc3)cc21 :: 1.68

[1] O=C(COc1ccccc1)N1CCCC[C@@H]1c1nc(-c2ccc(Cl)nc2)cs1
[2] COc1ccc(Cl)cc1S(=O)(=O)N1CCOc2c(Cl)cc(C(=O)Nc3ncc(CC(=O)O)s3)cc21
[3] O=C(O)c1ccc(NC(=O)c2ccc(NS(=O)(=O)c3cc(Cl)cc(Cl)c3)s2)cc1
[4] COc1ccc(Cl)cc1S(=O)(=O)N1CCS(=O)(=O)c2ccc(C(=O)Nc3ccc(C(=O)O)c(Cl)c3)cc21
[5] COc1ccc(Cl)cc1S(=O)(=O)c1nn(C)c2ccc(C(=O)Nc3ccc(CC(=O)O)cc3)cc12
Please put the entries in order of rising Papp. Respond with the label ranking, as requested.
3, 4, 5, 1, 2

----------
Measurement Protocol: SUPPLEMENTARY: Lyophilisation Solubility Assay (LYSA)
Assay type: physicochemical
Experimental Conditions: read-out: Kinetic_solubility
Recorded Metric: solubility kinetic (µg/mL)

The following molecules have reported results that may help.
1) Nc1cncc(-c2nc([C@H]3CCCCN3C(=O)COc3ccccc3)no2)c1 :: 19
2) COc1ccc(Cl)cc1S(=O)(=O)N1COCc2ccc(C(=O)Nc3nc(CC(=O)O)cs3)cc21 :: 7
3) COc1ccc(Cl)cc1Sc1cn(C)c2ccc(C(=O)Nc3ccc(C(=O)O)cc3)cc12 :: 2

[P] Cc1cc(C)cc(S(=O)(=O)c2nn(C)c3ccc(C(=O)Nc4ccc(C(=O)O)cc4)cc23)c1
[Q] COc1ccc(Cl)cc1S(=O)(=O)N1CC(C(=O)O)Oc2ccc(C(=O)Nc3cccc(F)c3)cc21 (stereo unspecified)
[R] O=C(NC1CC1)c1cncc(-c2noc([C@H]3CCCCN3C(=O)COc3ccccc3)n2)c1
[S] O=C(O)c1ccc(NC(=O)c2cccc(S(=O)(=O)N3CCCc4ccc(C(F)(F)F)cc43)c2)cc1
[T] COc1ccc(Cl)cc1Cc1cn(C)c2ccc(C(=O)Nc3ccc(C(=O)O)cc3)cc12
Arrange these molecules by their solubility kinetic, starting with the largest number. Provide the labels, sequenced as the question asks.
Q, R, S, T, P
(Q: 521 µg/mL, R: 138 µg/mL, S: 44 µg/mL, T: 23 µg/mL, P: 14 µg/mL)

[P] O=C(Nc1ccc(C(=O)O)c(Cl)c1)c1ccc2c(c1)N(S(=O)(=O)c1cc(Cl)cc(Cl)c1)CC2
[Q] O=C(COc1ccccc1)N1CCCC[C@@H]1c1nc(-c2cccc([N+](=O)[O-])n2)no1
Lab note: check whether P or Q shows the higher recorded solubility kinetic. Please respond with the label that marks your chosen entry.
P
(P: 16 µg/mL, Q: 10 µg/mL)

[P] O=C(Nc1ccc(-c2nnn[nH]2)cc1)c1cccc(NS(=O)(=O)c2cccc(Cl)c2)c1
[Q] COc1ccc(Cl)cc1S(=O)(=O)c1cn(CCCC(=O)O)c2ccc(C(=O)Nc3ccccc3)cc12
[R] COc1ccc(Cl)cc1S(=O)(=O)N1CCc2ccc(C(=O)Nc3ccc(C(=O)O)c(F)c3)cc21
[S] COc1ccc(Cl)cc1S(=O)(=O)N1CCOc2ccc(C(=O)Nc3ccc(CC(=O)O)cc3)cc21
List items by solubility kinetic in falling order. Lab note: record answer as labels in requested order.
Q, R, P, S

[1] COc1ccc(Cl)cc1S(=O)(=O)N1COCc2ccc(C(=O)Nc3ccc(CC(=O)O)cc3)cc21
[2] O=C(COc1ccccc1)N1CCCC[C@@H]1c1nc(-c2cccc(-c3n[nH]c(=O)o3)c2)n[nH]1
Which record shows the lower solubility kinetic: the first, 1 , or the second, 2 ? Output the label that corresponds to your choice.
2

----------
Measurement Protocol: SUPPLEMENTARY: Lipophilicity (log D) Determination by high-throughput shake-flask
Type: physicochemical
Experimental Conditions: octanol/water
Recorded Metric: logD

# count of solved cases: 2
1. COc1ccc(Cl)cc1S(=O)(=O)N1COc2c(C)cc(C(=O)Nc3ccc(C(=O)O)cc3)cc21 :: 1.32
2. Nc1ccc(-c2n[nH]c([C@H]3CCCCN3C(=O)COc3ccccc3)n2)cn1 :: 1.92

[P] O=C(COc1ccccc1)N1CCCC[C@@H]1c1nc(-c2ccc(=O)[nH]c2)no1
[Q] Cn1cc(S(=O)(=O)c2cccc(Cl)c2)c2cc(C(=O)Nc3nc(CC(=O)O)cs3)ccc21
Pick the one with the larger logD: P vs Q Answer by quoting the chosen item's label.
P

----------
pIC50: −log10 of the molar value.
The following are reported pIC50 results, target or system Carnitine O-palmitoyltransferase 2, mitochondrial (Homo sapiens, UniProt P23786).
Recorded Metric: pIC50

Record excerpt, results attached:
1) COc1ccc(Cl)cc1S(=O)(=O)N1CCOc2c(F)cc(C(=O)Nc3ccc(C(=O)O)cc3)cc21 :: 4.95
2) O=C(COc1ccccc1)N1CCCC[C@@H]1c1nc(-c2cccc(-c3nnco3)c2)n[nH]1 :: 4.06
3) CC(=O)c1ccc(-c2nc([C@H]3CCCCN3C(=O)COc3ccccc3)no2)cc1 :: 5.32
4) N#Cc1ccc(-c2nc([C@H]3CCCCN3C(=O)COc3ccccc3)no2)cc1 :: 4.66

[1] O=C([C@H]1CCCCN1C(=O)COc1ccccc1)N1Cc2ccc(OCC3CC3)cc2C1
[2] COc1ccc(Cl)cc1S(=O)(=O)N1CCNc2ccc(C(=O)Nc3ccc(C(=O)O)c(F)c3)cc21
Which has the higher pIC50, 1 or 2 ? # respond with the chosen item's label
1
(1: 6.15, 2: 4.38)
